Cited source: patent US10774051B2

IC50 listing for selected compounds.
# TARGET UNDER TEST: human P2X7 receptor (Homo sapiens, UniProt Q99572, R270H/Y155H)
# ASSAY METHOD TEXT: Evaluation of human P2X7 receptor inhibitory activity (Yo-Pro uptake, BzATP stimulation, FLIPR TETRA)
# Format: cell-based
# DETAILS: antagonistic activity for the human P2X7 receptor; read-out: IC50
MEASURED ENDPOINT: IC50

>  <COMPOUND>
COc1cc(C)c(Nc2nc(=O)c(OC)cn2Cc2ccc(F)c(F)c2)cc1Cl [Compound I-0616]

>  <MEASURED ENDPOINT>
IC50

>  <REPORTED>
< 0.01 µM

$$$$
>  <COMPOUND>
COc1cn(Cc2ccccc2)c(Nc2cc(Cl)cc3[nH]ccc23)nc1=O [Compound I-0818]

>  <MEASURED ENDPOINT>
IC50

>  <REPORTED>
0.01 to 0.1 µM

$$$$
>  <COMPOUND>
COc1cn(Cc2ccccc2)c(Nc2cc(-c3cccn(C)c3=O)c(F)cc2C)nc1=O [Compound I-0590]

>  <MEASURED ENDPOINT>
IC50

>  <REPORTED>
0.01 to 0.1 µM

$$$$
>  <COMPOUND>
COCCn1ccc2c(C)c(Nc3nc(=O)c(F)cn3Cc3cc(F)cc(F)c3)ccc21 [Compound I-1229]

>  <MEASURED ENDPOINT>
IC50

>  <REPORTED>
< 0.01 µM

$$$$
>  <COMPOUND>
CCOc1cc(Nc2nc(=O)c(OC)cn2Cc2cc(F)cc(F)c2)c(C)cc1F [Compound I-0920]

>  <MEASURED ENDPOINT>
IC50

>  <REPORTED>
0.01 to 0.1 µM

$$$$
>  <COMPOUND>
CCOc1cc(Nc2nc(=O)c(OC)cn2Cc2cccc(Cl)c2)c(C)cc1C [Compound I-0791]

>  <MEASURED ENDPOINT>
IC50

>  <REPORTED>
< 0.01 µM

$$$$
>  <COMPOUND>
CN1CCc2c(cccc2Nc2nc(=O)c(F)cn2Cc2cc(F)c(F)c(F)c2)C1 [Compound I-1107]

>  <MEASURED ENDPOINT>
IC50

>  <REPORTED>
0.01 to 0.1 µM

$$$$
>  <COMPOUND>
Cc1nc2cc(Cl)c(Nc3nc(=O)c(F)cn3Cc3cc(F)c(F)c(F)c3)cc2s1 [Compound I-1182]

>  <MEASURED ENDPOINT>
IC50

>  <REPORTED>
< 0.01 µM

$$$$
>  <COMPOUND>
COc1cn(Cc2ccc(F)c(Cl)c2)c(Nc2cc(-c3cccnc3)ccc2C)nc1=O [Compound I-0696]

>  <MEASURED ENDPOINT>
IC50

>  <REPORTED>
< 0.01 µM

$$$$
>  <COMPOUND>
Cc1ccc(-c2cccn(C)c2=O)cc1Nc1nc(=O)c(C)cn1Cc1cc(F)c(F)c(F)c1 [Compound I-1143]

>  <MEASURED ENDPOINT>
IC50

>  <REPORTED>
0.01 to 0.1 µM

$$$$
>  <COMPOUND>
Cc1ccc(Cl)c(Nc2nc(=O)c(F)cn2Cc2cc(F)c(F)c(F)c2)c1 [Compound I-1195]

>  <MEASURED ENDPOINT>
IC50

>  <REPORTED>
< 0.01 µM

$$$$
>  <COMPOUND>
O=C1CCCc2c(Nc3nc(=O)c(Cl)cn3Cc3cc(F)c(F)c(F)c3)cccc21 [Compound I-1162]

>  <MEASURED ENDPOINT>
IC50

>  <REPORTED>
< 0.01 µM

$$$$
>  <COMPOUND>
COc1cc(Nc2nc(=O)c(OC)cn2Cc2cc(F)cc(Cl)c2)c(C)cc1F [Compound I-0780]

>  <MEASURED ENDPOINT>
IC50

>  <REPORTED>
0.01 to 0.1 µM

$$$$
>  <COMPOUND>
COc1cn(Cc2cc(F)cc(F)c2)c(Nc2cc(CO)c(C)cc2C)nc1=O [Compound I-0600]

>  <MEASURED ENDPOINT>
IC50

>  <REPORTED>
< 0.01 µM

$$$$
>  <COMPOUND>
COCc1cn(Cc2cc(F)c(F)c(F)c2)c(Nc2cc(Cl)c(OC)cc2C)nc1=O [Compound I-1146]

>  <MEASURED ENDPOINT>
IC50

>  <REPORTED>
0.01 to 0.1 µM

$$$$
>  <COMPOUND>
COc1cn(Cc2cc(F)cc(F)c2)c(Nc2cccc3c2ccc(=O)n3C)nc1=O [Compound I-0882]

>  <MEASURED ENDPOINT>
IC50

>  <REPORTED>
0.5 to 1 µM

$$$$
>  <COMPOUND>
COc1nc2ccc(Nc3nc(=O)c(OC)cn3Cc3cc(F)cc(F)c3)c(C)c2s1 [Compound I-0830]

>  <MEASURED ENDPOINT>
IC50

>  <REPORTED>
0.01 to 0.1 µM

$$$$
>  <COMPOUND>
COc1cn(Cc2cc(F)cc(Cl)c2)c(Nc2cc(C(C)(C)O)ccc2C)nc1=O [Compound I-0776]

>  <MEASURED ENDPOINT>
IC50

>  <REPORTED>
0.01 to 0.1 µM

$$$$
>  <COMPOUND>
Cc1ccc(CO)cc1Nc1nc(=O)c(C)nn1Cc1cc(F)c(F)c(F)c1 [Compound I-1254]

>  <MEASURED ENDPOINT>
IC50

>  <REPORTED>
< 0.01 µM

$$$$
>  <COMPOUND>
COc1cn(Cc2ccc(C(F)(F)F)c(F)c2)c(Nc2cccc(Cl)c2C)nc1=O [Compound I-0634]

>  <MEASURED ENDPOINT>
IC50

>  <REPORTED>
0.1 to 0.5 µM

$$$$
>  <COMPOUND>
Cc1cc(OC(F)F)ccc1Nc1nc(=O)c(F)cn1Cc1cc(F)c(F)c(F)c1 [Compound I-1039]

>  <MEASURED ENDPOINT>
IC50

>  <REPORTED>
0.01 to 0.1 µM

$$$$
>  <COMPOUND>
CCOc1cn(Cc2ccc(F)c(Cl)c2)c(Nc2cc(C)c(OC)cc2C)nc1=O [Compound I-0714]

>  <MEASURED ENDPOINT>
IC50

>  <REPORTED>
< 0.01 µM

$$$$
>  <COMPOUND>
Cc1cc(OC(F)F)c(C)cc1Nc1nc(=O)c(Cl)cn1Cc1cc(F)cc(F)c1 [Compound I-0839]

>  <MEASURED ENDPOINT>
IC50

>  <REPORTED>
< 0.01 µM

$$$$
>  <COMPOUND>
COc1cc(Nc2nc(=O)c(F)cn2Cc2cc(F)c(F)c(F)c2)c(C)cc1F [Compound I-1058]

>  <MEASURED ENDPOINT>
IC50

>  <REPORTED>
< 0.01 µM

$$$$
>  <COMPOUND>
COc1ccc(C)c(Nc2nc(=O)c(C#N)cn2Cc2cc(F)cc(F)c2)c1 [Compound I-1123]

>  <MEASURED ENDPOINT>
IC50

>  <REPORTED>
0.1 to 0.5 µM

$$$$
>  <COMPOUND>
Cc1cc(Cl)ccc1Nc1nc(=O)c(F)cn1Cc1cc(F)c(F)c(F)c1 [Compound I-1192]

>  <MEASURED ENDPOINT>
IC50

>  <REPORTED>
< 0.01 µM

$$$$
>  <COMPOUND>
Cc1ccc(-c2ncco2)cc1Nc1nc(=O)c(F)cn1Cc1cc(F)cc(F)c1 [Compound I-0851]

>  <MEASURED ENDPOINT>
IC50

>  <REPORTED>
< 0.01 µM

$$$$
>  <COMPOUND>
CCOc1cn(Cc2ccccc2)c(Nc2cc(OC)c(OC)cc2C)nc1=O [Compound I-0759]

>  <MEASURED ENDPOINT>
IC50

>  <REPORTED>
0.01 to 0.1 µM

$$$$
>  <COMPOUND>
COc1cn(Cc2ccc(F)c(F)c2)c(Nc2cc(OC(F)(F)F)ccc2C)nc1=O [Compound I-0693]

>  <MEASURED ENDPOINT>
IC50

>  <REPORTED>
0.01 to 0.1 µM

$$$$
>  <COMPOUND>
COc1cn(Cc2cc(F)cc(F)c2)c(Nc2cc(-c3cscn3)ccc2C)nc1=O [Compound I-0753]

>  <MEASURED ENDPOINT>
IC50

>  <REPORTED>
< 0.01 µM

$$$$
>  <COMPOUND>
COc1cc(Nc2nc(=O)c(F)cn2Cc2cc(F)c(F)c(F)c2)c(C)cc1Cl [Compound I-1006]

>  <MEASURED ENDPOINT>
IC50

>  <REPORTED>
< 0.01 µM

$$$$
>  <COMPOUND>
Cc1cc2cc(Nc3nc(=O)c(F)cn3Cc3cc(F)cc(F)c3)c(C)cc2[nH]1 [Compound I-1057]

>  <MEASURED ENDPOINT>
IC50

>  <REPORTED>
0.01 to 0.1 µM

$$$$
>  <COMPOUND>
CCOc1ccc(Nc2nc(=O)c(F)cn2Cc2cc(F)cc(F)c2)c(C)c1 [Compound I-1047]

>  <MEASURED ENDPOINT>
IC50

>  <REPORTED>
0.01 to 0.1 µM

$$$$
